- system-name: Cellular tumor antigen p53 (Homo sapiens) (UniProt P04637)
- Sequence (P04637 whole entry, looked up): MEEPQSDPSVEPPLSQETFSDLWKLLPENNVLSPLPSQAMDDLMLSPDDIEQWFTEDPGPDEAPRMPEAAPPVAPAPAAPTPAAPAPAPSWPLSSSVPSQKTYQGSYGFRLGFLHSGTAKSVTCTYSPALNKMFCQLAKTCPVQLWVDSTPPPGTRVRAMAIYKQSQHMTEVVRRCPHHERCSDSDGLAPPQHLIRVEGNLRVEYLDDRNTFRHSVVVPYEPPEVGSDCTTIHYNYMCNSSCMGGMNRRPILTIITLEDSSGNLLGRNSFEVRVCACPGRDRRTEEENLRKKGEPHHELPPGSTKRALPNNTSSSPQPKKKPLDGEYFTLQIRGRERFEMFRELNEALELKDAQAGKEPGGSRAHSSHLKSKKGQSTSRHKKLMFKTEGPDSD
- test-details: Primary qHTS for small molecule compounds that upregulate eGFP-tagged delta133p53alpha (in N-terminal) cells. (AID 2060322); further: nearly all actives have a fitted effect of over 75% in size;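 on activation: cells pre-induced with doxycycline then dosed without doxycycline; series mostly up to about 56 µM; 0% = DMSO vehicle and 100% = reference activator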
- test-settings: NCI-H358 eGFP-delta133p53alpha fluorescence, 24 h; hits give high values
Records with an inconclusive call do not appear.
readout-type: activation (%)
Write the value in % as a bare number.

In: Please give measured activation of the following entry: COc1ccc(CN2CCNCC2)c(OC)c1OC
Out: -13

In: Please give measured activation of the following entry: CC[C@H]1C=CC=CC[C@@H](C)[C@H](O)[C@@](C)(O)C(=O)[C@@H](C)[C@H](O)[C@@H](C)C(=O)[C@@H](C)[C@H](O)[C@@H](C)C=CC(=O)O[C@@H]2[C@@H](C)[C@H](CC1)O[C@]1(CC[C@H](C)[C@H](C[C@@H](C)O)O1)[C@H]2C
Out: 11.3

In: Please give measured activation of the following entry: COC1=CC(=O)O[C@@H](/C=C/c2ccccc2)C1
Out: -10.7

In: Please give measured activation of the following entry: CCN1C[C@]2(OC(=O)c3ccccc3NC(C)=O)CC[C@H](OC)[C@@]34[C@@H]2C[C@@H]([C@@H]13)[C@@]1(O)C[C@H](OC)[C@H]2C[C@@H]4[C@]1(O)[C@H]2OC
Out: -6.68

In: Please give measured activation of the following entry: COC1CC(=O)C23C(=O)NC(CC(C)C)C2C(C)=C(C)C(OO)C3/C=C(\C)CCC(O)C1O (stereo unspecified)
Out: -4.58

In: Please give measured activation of the following entry: N[C@@H](Cc1ccc(N(CCCl)CCCl)cc1)C(=O)O
Out: 29.4

----------
For each of the compounds below, state its Potency.
- system-name: Cellular tumor antigen p53 (Homo sapiens) (UniProt P04637)
- test-details: Primary qHTS for small molecule compounds that upregulate eGFP-tagged delta133p53alpha (in N-terminal) cells. (AID 2060322); further: nearly all actives have a fitted effect of over 75% in size; further: potency means the concentration at half of the fitted maximal effect;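 on activation: cells pre-induced with doxycycline then dosed without doxycycline; series mostly up to about 56 µM; 0% = DMSO vehicle and 100% = reference activator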
- test-settings: NCI-H358 eGFP-delta133p53alpha fluorescence, 24 h
- From the text: Assay Development and Screening Technology National Center for Advancing Translational Sciences (NCATS), National Institute of Health (NIH), Rockville, Maryland Cellular senescence (CS) is one of the hallmarks of aging and age-related diseases. […] Here we report the development and validation of a cell-based quantitative high throughput screening (qHTS) assay in 1,536-well format. […]
Results filed as inconclusive are left out. Calls of active or inactive are those of the source. The call rests on the fitted dose curve; in most records, active means well fitted activation curve with a large enough effect; inconclusive means small, poorly fitted or top-dose-only effect; inactive means no such curve, though single readings can be large or run the other way.

In: Report Potency from Cellular tumor antigen p53 (Homo sapiens) (UniProt P04637) testing of CNc1ccc2oc(C[C@H]3O[C@@]4(CC[C@H]3C)O[C@H](C(C)C(=O)c3ccc[nH]3)[C@H](C)C[C@H]4C)nc2c1C(=O)O (some centres not stated)
Out: 19 µM (active)

In: Report Potency from Cellular tumor antigen p53 (Homo sapiens) (UniProt P04637) testing of O=c1oc2ccccc2c(O)c1Cc1c(O)c2ccccc2oc1=O
Out: 17.4 µM (active)

In: Report Potency from Cellular tumor antigen p53 (Homo sapiens) (UniProt P04637) testing of CC(=O)O[C@@H]1[C@@H](O)[C@H]2O[C@@H]3C=C(C)[C@@H](O)C[C@]3(CO)[C@]1(C)[C@]21CO1
Out: 1.48 µM (active)

In: Report Potency from Cellular tumor antigen p53 (Homo sapiens) (UniProt P04637) testing of C[C@]12CCC(=O)C=C1CC[C@@H]1[C@H]3CC[C@](C)(O)[C@@]3(C)CC[C@@H]12
Out: 50.9 µM (active)

In: Report Potency from Cellular tumor antigen p53 (Homo sapiens) (UniProt P04637) testing of CC1=C[C@H]2O[C@@H]3[C@H](O)[C@@H](O)[C@](C)([C@@]2(CO)C[C@@H]1O)[C@]31CO1
Out: 7.57 µM (active)

In: Report Potency from Cellular tumor antigen p53 (Homo sapiens) (UniProt P04637) testing of CC[C@@H]1C[C@H]2CC[C@H](O2)[C@H](C)C(=O)O[C@@H](C)C[C@@H]2CC[C@@H](O2)[C@@H](C)C(=O)O[C@H](CC)C[C@H]2CC[C@H](O2)[C@H](C)C(=O)O[C@@H](C)C[C@@H]2CC[C@@H](O2)[C@@H](C)C(=O)O1
Out: 6.3 µM (active)

In: Report Potency from Cellular tumor antigen p53 (Homo sapiens) (UniProt P04637) testing of CC1=CC2/C=C(\C)CCC(O)C(O)/C=C/C(=O)C23C(=O)NC(CC(C)C)C3C1C (configuration not stated)
Out: 13.1 µM (active)

In: Report Potency from Cellular tumor antigen p53 (Homo sapiens) (UniProt P04637) testing of Oc1cc(Cl)ccc1Oc1ccc(Cl)cc1Cl
Out: 51.4 µM (active)

In: Report Potency from Cellular tumor antigen p53 (Homo sapiens) (UniProt P04637) testing of CC[C@@]1(O)C(=O)OCc2c1cc1n(c2=O)Cc2cc3c(OC)cccc3nc2-1
Out: 6.59 µM (active)

In: Report Potency from Cellular tumor antigen p53 (Homo sapiens) (UniProt P04637) testing of CCC(OC(C)=O)C(CC(C)NC)(c1ccccc1)c1ccccc1 (configuration not stated)
Out: 28.5 µM (active)

In: Report Potency from Cellular tumor antigen p53 (Homo sapiens) (UniProt P04637) testing of CC(=O)OC[C@]12C[C@H](OC(C)=O)C(C)=C[C@H]1O[C@@H]1[C@H](O)[C@@H](O)[C@@]2(C)[C@]12CO2
Out: 0.467 µM (active)

In: Report Potency from Cellular tumor antigen p53 (Homo sapiens) (UniProt P04637) testing of CC(=O)OC[C@]12C[C@H](OC(=O)CC(C)C)C(C)=C[C@H]1O[C@@H]1[C@H](O)C[C@@]2(C)[C@]12CO2
Out: 3.7 µM (active)
